Molecular target: Alpha-2C adrenergic receptor (Homo sapiens, UniProt P18825); further: assay procedure not described here
Sequence (P18825 whole entry): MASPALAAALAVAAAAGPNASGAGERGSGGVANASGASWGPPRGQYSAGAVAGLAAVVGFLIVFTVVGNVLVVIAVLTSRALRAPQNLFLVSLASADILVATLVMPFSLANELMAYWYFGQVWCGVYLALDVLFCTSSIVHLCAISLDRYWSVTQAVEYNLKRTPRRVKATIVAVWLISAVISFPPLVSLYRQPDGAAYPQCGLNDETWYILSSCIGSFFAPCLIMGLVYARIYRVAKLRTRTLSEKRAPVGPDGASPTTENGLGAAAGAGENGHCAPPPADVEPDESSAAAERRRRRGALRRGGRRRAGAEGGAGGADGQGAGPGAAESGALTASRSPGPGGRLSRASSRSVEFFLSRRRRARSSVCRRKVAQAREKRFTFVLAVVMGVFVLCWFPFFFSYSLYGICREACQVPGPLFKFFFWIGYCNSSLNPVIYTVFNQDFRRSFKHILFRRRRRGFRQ
Format: functional
AC50 for assorted molecules
Recorded metric: AC50

                                   molecule  recorded_metric  value_measured
0  COc1cc(C(C)=O)ccc1OCCCN1CCC(c2noc3cc(F)ccc23)CC1             AC50        0.018 µM
1                       CCOC(=O)c1ccc(N)cc1             AC50         > 10 µM
2    CCc1cc2c(s1)-n1c(C)nnc1CN=C2c1ccccc1Cl             AC50         > 30 µM
3  CC(Cc1cccc(C(F)(F)F)c1)NCCOC(=O)c1ccccc1 (centres undefined)             AC50         2.41 µM
4   CCOC(=O)c1ncn2c1CN(C)C(=O)c1cc(F)ccc1-2             AC50         > 30 µM
5  C[N+](C)(C)CCOP(=O)(O)OP(=O)([O-])OC[C@H]1O[C@@H](n2ccc(N)nc2=O)[C@H](O)[C@@H]1O             AC50         > 30 µM
6   CCCC(C)(COC(N)=O)COC(N)=O [MEPROBAMATE]             AC50         > 30 µM
7  CC(CN1c2ccccc2Sc2ccccc21)N(C)C (centres undefined)             AC50            3 µM
8  CN(CCOc1ccc(CC2SC(=O)NC2=O)cc1)c1ccccn1 (centres undefined)             AC50         > 30 µM

----------
Biological target: Sodium-dependent noradrenaline transporter (Homo sapiens, UniProt P23975); further: assay procedure not described here
Sequence (P23975 whole entry): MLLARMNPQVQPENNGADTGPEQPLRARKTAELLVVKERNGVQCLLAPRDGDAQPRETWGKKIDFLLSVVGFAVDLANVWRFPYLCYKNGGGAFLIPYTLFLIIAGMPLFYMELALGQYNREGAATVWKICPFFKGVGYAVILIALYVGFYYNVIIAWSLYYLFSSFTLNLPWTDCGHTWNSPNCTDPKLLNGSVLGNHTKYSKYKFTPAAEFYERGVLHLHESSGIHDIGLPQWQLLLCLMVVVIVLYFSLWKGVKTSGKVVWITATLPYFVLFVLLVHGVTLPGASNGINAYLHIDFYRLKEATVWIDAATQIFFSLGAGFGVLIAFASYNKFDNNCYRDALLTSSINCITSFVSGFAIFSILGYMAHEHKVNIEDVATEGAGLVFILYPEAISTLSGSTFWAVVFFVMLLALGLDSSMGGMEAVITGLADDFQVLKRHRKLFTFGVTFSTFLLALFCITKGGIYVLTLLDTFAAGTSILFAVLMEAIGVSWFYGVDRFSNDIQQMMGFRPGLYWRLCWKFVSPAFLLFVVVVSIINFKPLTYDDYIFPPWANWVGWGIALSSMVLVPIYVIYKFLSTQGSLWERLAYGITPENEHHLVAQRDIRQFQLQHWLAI
Entries and their AC50 values follow.
Recorded metric: AC50

Molecule	Tested on	Value measured
O=C(c1cc(Cc2n[nH]c(=O)c3ccccc23)ccc1F)N1CCN(C(=O)C2CC2)CC1	Sodium-dependent noradrenaline transporter (Homo sapiens, UniProt P23975)	> 30 µM
C[C@@H]1C[C@H]2[C@@H]3C[C@H](F)C4=CC(=O)C=C[C@]4(C)[C@@]3(F)[C@@H](O)C[C@]2(C)[C@@]1(OC(=O)c1ccco1)C(=O)SCF [FLUTICASONE FUROATE]	Sodium-dependent noradrenaline transporter (Homo sapiens, UniProt P23975)	> 10 µM
CC/C=C\C/C=C\C/C=C\C/C=C\C/C=C\CCCC(=O)OCC	Sodium-dependent noradrenaline transporter (Homo sapiens, UniProt P23975)	> 30 µM
CC(C)NC[C@H](O)COc1ccc(CC(N)=O)cc1	Sodium-dependent noradrenaline transporter (Homo sapiens, UniProt P23975)	> 10 µM
CNC[C@H](O)c1ccc(O)c(O)c1 [EPINEPHRINE]	Sodium-dependent noradrenaline transporter (Homo sapiens, UniProt P23975)	> 30 µM
O=C(O)Cc1ccccc1Nc1c(Cl)cccc1Cl	Sodium-dependent noradrenaline transporter (Homo sapiens, UniProt P23975)	> 30 µM
CCC1(c2ccc(N)cc2)CCC(=O)NC1=O (centres undefined) [AMINOGLUTETHIMIDE]	Sodium-dependent noradrenaline transporter (Homo sapiens, UniProt P23975)	> 30 µM
CC[C@@H](CO)NC(=O)[C@@H]1C=C2c3cccc4c3c(cn4C)C[C@H]2N(C)C1 [METHYSERGIDE]	Sodium-dependent noradrenaline transporter (Homo sapiens, UniProt P23975)	> 30 µM
COc1cc2[nH]c(C)c(CCN3CCN(c4ccccc4)CC3)c2cc1OC	Sodium-dependent noradrenaline transporter (Homo sapiens, UniProt P23975)	14 µM
c1ccc(C2(N3CCCCC3)CCCCC2)cc1	Sodium-dependent noradrenaline transporter (Homo sapiens, UniProt P23975)	12 µM
COc1cc(C(=O)NS(=O)(=O)c2ccccc2C)ccc1Cc1cn(C)c2ccc(NC(=O)OC3CCCC3)cc12	Sodium-dependent noradrenaline transporter (Homo sapiens, UniProt P23975)	> 10 µM
CC(C(=O)O)c1ccc2oc(-c3ccc(Cl)cc3)nc2c1 (centres undefined)	Sodium-dependent noradrenaline transporter (Homo sapiens, UniProt P23975)	> 30 µM
Oc1cc(O)c(Cl)cn1	Sodium-dependent noradrenaline transporter (Homo sapiens, UniProt P23975)	> 30 µM
CCOC(=O)C(C)(C)Oc1ccc(Cl)cc1 [CLOFIBRATE]	Sodium-dependent noradrenaline transporter (Homo sapiens, UniProt P23975)	> 30 µM
CC(c1cc2ccccc2s1)N(O)C(N)=O (centres undefined)	Sodium-dependent noradrenaline transporter (Homo sapiens, UniProt P23975)	> 10 µM
Cc1nnc(SCC2=C(C(=O)O)N3C(=O)[C@@H](NC(=O)Cn4cnnn4)[C@H]3SC2)s1	Sodium-dependent noradrenaline transporter (Homo sapiens, UniProt P23975)	> 300 µM
COc1cc(C(=O)NC2CCCNC2)cc(OC)c1OC (centres undefined) [TROXIPIDE]	Sodium-dependent noradrenaline transporter (Homo sapiens, UniProt P23975)	> 30 µM
C[N+](C)(C)CCOP(=O)([O-])OC[C@H](O)CO	Sodium-dependent noradrenaline transporter (Homo sapiens, UniProt P23975)	> 30 µM
CCOC(=O)c1ncn2c1CN(C)C(=O)c1cc(F)ccc1-2	Sodium-dependent noradrenaline transporter (Homo sapiens, UniProt P23975)	> 30 µM
